# System: A2058 cells
# Test: Cell viability assay (Cell-Titer-Glo) in A2058 cells
# Type: cell-based
# Measurement setup: Homo sapiens, 48 hour treatment, test compounds 1 nM to 1 μM
# Experimental: Cell viability assays were run using standard protocols known to those of skill in art. Cells were plated in 96 well plates at the density of 3,000-10,000 cells per well. Twenty four hours later, cells were treated with increasing concentration of test compounds (1 nM to 1 μM). After another 48 hour, cell survival was measured using Cell-Titer-Glo® reagent (Promega) following the protocol provided by the manufacture. […]
Property: IC50; scope: individual compounds

# Compound, IC50
rows = [
    ("COC(=O)c1coc(-c2nc3oc2C24c5cc(ccc5O[C@@H]2N(S(C)(=O)=O)c2ccccc24)C[C@H](NC(=O)[C@@H](O)C(C)C)C(=O)N[C@H]3C(C)C)n1 (stereo partly drawn)", "> 1000 nM"),
    ("CC(C)[C@H](O)C(=O)N[C@H]1CCc2ccc3c(c2)[C@]2(C4=C(c5nc(CO)co5)N=C(O4)[C@H](C(C)(C)C)NC1=O)c1ccccc1NC2O3 (stereo partly drawn)", "1.89 nM"),
    ("COC(=O)c1coc(-c2nc3oc2[C@@]24c5ccccc5NC2Oc2ccc(cc24)C[C@H](N(C)C(=O)[C@@H](O)C(C)C)C(=O)N(C)[C@H]3C(C)C)n1 (stereo partly drawn)", "35.8 nM"),
    ("CC(C)[C@H](O)C(=O)N[C@H]1Cc2ccc3c(c2)C2(C4=C(c5nc(CO)cs5)N=C(O4)[C@H](C(C)C)NC1=O)c1ccccc1N[C@H]2O3 (stereo partly drawn)", "284 nM"),
    ("CC(C)=CC(=O)N[C@H]1Cc2ccc3c(c2)C2(C4=C(c5nc(C#N)co5)N=C(O4)[C@H](C(C)(C)C)NC1=O)c1ccccc1N[C@H]2O3 (stereo partly drawn)", "186 nM"),
    ("COC(=O)c1coc(-c2nc3oc2[C@@]24c5ccccc5NC2Oc2c(Cl)cc(cc24)CC(NC(=O)[C@@H](O)C(C)C)C(=O)N[C@H]3C(C)C)n1 (stereo partly drawn)", "77 nM"),
]
